molecular target: Human COX-2 (Homo sapiens); construct: A 2.0 kb fragment containing the coding region of either human or murine COX-1 or human or murine COX-2; assay: Fast assay for COX-2 activity (PGE2 formed, ELISA); details: recombinant enzyme in CHAPS-solubilized insect cell membranes; 10 min pre-incubation at 25° C.; 10 μM arachidonic acid
Sequence (P35354 18-604): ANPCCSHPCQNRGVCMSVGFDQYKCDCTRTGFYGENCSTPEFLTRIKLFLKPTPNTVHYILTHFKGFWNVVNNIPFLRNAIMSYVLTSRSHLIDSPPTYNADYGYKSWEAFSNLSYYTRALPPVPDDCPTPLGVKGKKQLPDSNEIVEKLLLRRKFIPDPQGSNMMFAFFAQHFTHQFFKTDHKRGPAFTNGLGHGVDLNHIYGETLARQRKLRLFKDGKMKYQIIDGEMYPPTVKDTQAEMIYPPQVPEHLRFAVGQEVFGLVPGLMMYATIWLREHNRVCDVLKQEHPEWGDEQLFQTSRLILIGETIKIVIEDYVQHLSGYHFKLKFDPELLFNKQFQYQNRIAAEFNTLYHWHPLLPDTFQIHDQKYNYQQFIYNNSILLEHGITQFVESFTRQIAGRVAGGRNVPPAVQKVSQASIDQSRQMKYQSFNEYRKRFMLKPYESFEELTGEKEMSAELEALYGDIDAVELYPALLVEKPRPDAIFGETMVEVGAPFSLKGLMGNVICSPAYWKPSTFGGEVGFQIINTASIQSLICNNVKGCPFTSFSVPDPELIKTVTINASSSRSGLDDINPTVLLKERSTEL
IC50 strictly under 100 nM means Met; at 100 nM or over means Not met.

smiles.data	class
COc1ccc(-n2nc(C(F)(F)F)cc2-c2cc(F)c(S(C)(=O)=O)cc2F)cc1	Not met
CS(=O)(=O)c1cc(F)c(-c2cc(C(F)(F)F)nn2-c2ccc(Cl)cc2)cc1F	Met
Cc1onc(-c2ccccc2)c1-c1cc(F)c(S(N)(=O)=O)c(F)c1	Not met
Cc1ccc(-n2nc(C(F)(F)F)cc2-c2cc(F)c(S(C)(=O)=O)c(F)c2)cc1Cl	Met
CS(=O)(=O)c1c(F)cc(-c2cc(C(F)(F)F)nn2-c2cccc(C(F)(F)F)c2)cc1F	Not met
CS(=O)(=O)c1c(F)cc(-c2cc(C(F)(F)F)nn2-c2ccc(F)cc2)cc1F	Not met
Cc1ccc(-n2nc(C(F)F)cc2-c2cc(F)c(S(C)(=O)=O)c(F)c2)cc1Cl	Not met
